# Tested on: HT-22
# method: Neuroprotective activity against mouse HT22 cells assessed as inhibition of glutamate-induced cell injury pretreated at 3 uM for 30 mins measured after 24 hrs by MTT assay
# Format: functional
Reported values of inhibition at 3 µM for individual entries
Your answer should be a plain number; it is taken to be in %.

Field: example entries. Status: answers known.
Cc1ccc(S(=O)(=O)n2c3ccccc3c3ccc(C(F)(F)F)cc32)cc1 0
Cc1ccc(-n2c3ccccc3c3ccc(-c4ccccc4)cc32)cc1 63
Cc1ccc(-n2c3ccccc3c3ccc4ccccc4c32)cc1 0
Cc1ccc(S(=O)(=O)n2c3ccccc3c3ccc(-c4ccccc4)cc32)cc1 12
Fc1ccc(-n2c3ccccc3c3ccccc32)cc1 0

Q) Give the measured inhibition at 3 µM of OCCCCn1c2ccccc2c2ccccc21 .
A) 0

Q) And the next one, CN(C)c1ccc(-n2c3ccccc3c3ccccc32)cc1 ?
A) 20

Q) And the next one, COc1ccc(-n2c3ccccc3c3ccccc32)cc1 ?
A) 3

Q) And the next one, Cc1ccc(S(=O)(=O)n2c3ccccc3c3ccc4ccccc4c32)cc1 ?
A) 4

Q) And the next one, COc1ccc2c(c1)c1ccccc1n2S(=O)(=O)c1ccc(C)cc1 ?
A) 0

* * *

# System: HT-22
# method: Neuroprotective activity against mouse HT22 cells assessed as inhibition of glutamate-induced cell injury pretreated at 10 uM for 30 mins measured after 24 hrs by MTT assay
# Assay type: functional
endpoint.name: inhibition at 10 µM (%)
Your answer should be a plain number; it is taken to be in %.

Q) Give the measured inhibition at 10 µM of CN(C)c1ccc(-n2c3ccccc3c3ccccc32)cc1 .
A) 40

Q) And the next one, Fc1ccc(-n2c3ccccc3c3ccccc32)cc1 ?
A) 0

Q) And the next one, Cc1ccc(S(=O)(=O)n2c3ccccc3c3ccc(C(F)(F)F)cc32)cc1 ?
A) 10

Q) And the next one, CC(C)(C)c1ccc(-n2c3ccccc3c3ccccc32)cc1 ?
A) 35

Q) And the next one, Brc1ccc(-n2c3ccccc3c3ccccc32)cc1 ?
A) 0

Q) And the next one, FC(F)(F)c1ccc(-n2c3ccccc3c3ccccc32)cc1 ?
A) 14

* * *

# Test system: HT-22
# method: Neuroprotective activity against mouse HT22 cells assessed as inhibition of HCA-induced cell injury pretreated at 3 uM for 30 mins measured after 24 hrs by MTT assay
# Type: functional
endpoint.name: inhibition at 3 µM (%)
Your answer should be a plain number; it is taken to be in %.

Fc1cccc(-n2c3ccccc3c3ccccc32)c1 0
Cc1ccc(S(=O)(=O)n2c3ccccc3c3ccc(C(F)(F)F)cc32)cc1 0
Cc1ccc(S(=O)(=O)n2c3ccccc3c3ccc(-c4ccccc4)cc32)cc1 11

Q) Under HT-22: inhibition at 3 µM value of CCc1ccc(S(=O)(=O)n2c3ccccc3c3ccccc32)cc1 ?
A) 0

Q) And the next one, FC(F)(F)c1ccc(-n2c3ccccc3c3ccccc32)cc1 ?
A) 0

Q) And the next one, Cc1ccc(S(=O)(=O)n2c3ccccc3c3ccc(C#N)cc32)cc1 ?
A) 0

Q) And the next one, Fc1ccc(-n2c3ccccc3c3ccccc32)cc1 ?
A) 0

* * *

# Test system: HT-22
# method: Neuroprotective activity against mouse HT22 cells assessed as inhibition of glutamate-induced cell injury pretreated at 10 uM for 30 mins measured after 24 hrs by MTT assay
# Format: functional
endpoint.name: inhibition at 10 µM
Kindly format the answer as number then unit.

Q) Give the measured inhibition at 10 µM of COc1ccc2c3ccccc3n(S(=O)(=O)c3ccc(C)cc3)c2c1 .
A) 2%

Q) And the next one, COc1ccc2c(c1)c1ccccc1n2S(=O)(=O)c1ccc(C)cc1 ?
A) 3%
